Here, each record is paired with measured protein stability index data.
B1: PPFIA4 (parent)
chain: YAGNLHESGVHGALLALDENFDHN

Variants of: B1
ASSAY_TEXT: protein stability index of a GFP-peptide fusion (GPS, HEK-293T) (PSI 1-6); higher = more stable;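 note: lentivirally expressed fusions sorted by FACS into six bins by GFP to DsRed ratio, PSI derived from sequencing read proportions per bin multiplied by bin number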
MEASUREMENT_SETUP: c terminus: a fixed tail appended
Kindly provide the number alone.

Sample answers from the record:
- ENTRY_SEQUENCE: "YAGNLHESGVHGALLHLDENFDHN [A16H]"
  protein stability index: 3.25
- ENTRY_SEQUENCE: "YAGNLHESGVHGALLALDENVDHN [F21V]"
  protein stability index: 2.63
- ENTRY_SEQUENCE: "YAGNLHESGVHGALLALDENFAHN [D22A]"
  protein stability index: 2.56

# input Quick check: protein stability index of YAGNHHESGVHGALLALDENFDHN [L5H] ?
# output 2.38

# input Quick check: protein stability index of YAGNLHEWGVHGALLALDENFDHN [S8W] ?
# output 1.72

# input Quick check: protein stability index of YAGNLHEYGVHGALLALDENFDHN [S8Y] ?
# output 2.28

# input Quick check: protein stability index of GAGNLHESGVHGALLALDENFDHN [Y1G] ?
# output 5.06

# input Quick check: protein stability index of YAGNLFESGVHGALLALDENFDHN [H6F] ?
# output 1.99

# input Quick check: protein stability index of YAGNLHESGVHGALLASDENFDHN [L17S] ?
# output 4.03

# input Quick check: protein stability index of YAGNYHESGVHGALLALDENFDHN [L5Y] ?
# output 1.82

# input Quick check: protein stability index of YQGNLHESGVHGALLALDENFDHN [A2Q] ?
# output 3.23

# input Quick check: protein stability index of YAGNLHESGVHGALLTLDENFDHN [A16T] ?
# output 3.34
